These data points were gathered from PubChem BioAssay (NCI).

System: SNB-75 CNS
Assay: NCI-60 one-dose screen, 48 h
Conditions: 10 µM unless noted
This is part of a sample that, as a whole, favours compounds with a hit. Of some 83,000 tested, about 20% had one in any assay. Calls of active or inactive are those of the source. The calls were made as follows: active = growth percent below 10; inactive = the rest.
Classes used: active, inactive

MOLECULE | GROUP
COc1ccc2c(c1)c(-c1nnc(N)nc1-c1cn(C)c3ccccc13)cn2C | inactive
Oc1ccc(CSc2nnc(-c3cnccn3)o2)c2cccnc12 | inactive
CC(=O)NC(C)(C)C(=O)N1CCC[C@H]1C(=O)NC(C)(C)C(=O)N[C@@H](C)C(=O)NC(C)(C)C(=O)NC(C)(C)C(=O)N[C@@H](CCC(N)=O)C(=O)NC(C)(C)C(=O)N[C@H](C(=O)NC(C)(C)C(=O)NCC(=O)N[C@@H](CC(C)C)C(=O)NC(C)(C)C(=O)N1CCC[C@H]1C(=O)N[C@H](C(=O)NC(C)(C)C(=O)NC(C)(C)C(=O)N[C@@H](CCC(N)=O)C(=O)N[C@@H](CCC(N)=O)C(=O)N[C@H](CO)Cc1ccccc1)C(C)C)C(C)C | inactive
CN1C(=O)N(C)C2Nn3c(s/c(=C\c4ccccn4)c3=O)=NC21 (stereo unspecified) | inactive
C#C[C@]1(O)CC[C@H]2[C@@H]3CC=C4c5sc(Nc6cccc(Cl)n6)nc5CC[C@]4(C)[C@H]3CC[C@@]21C | active
CCOC(=O)/C(F)=C/C1CC1C1CCCCC1 (stereo unspecified) | inactive
